test system: MOLT-4 leukemia; test: NCI tumour cell line growth inhibition, 48 h
Observation Type: TGI

Q: API: value(readout=TGI, system=MOLT-4 leukemia) for record `C=C(CC[C@@H](C)[C@H]1CC[C@H]2[C@@H]3C[C@@H](O)[C@H]4C[C@@H](O)CC[C@]4(CO)[C@H]3CC[C@]12C)C(C)C`
Ans: 10.8 µM

Q: API: value(readout=TGI, system=MOLT-4 leukemia) for record `CC(=O)OCCOCn1cc(C=O)c2ccccc21`
Ans: > 100 µM

Q: API: value(readout=TGI, system=MOLT-4 leukemia) for record COc1nc(SC)nc2c1C(O)n1c(nc3ccccc31)S2 (stereo unspecified)
Ans: > 100 µM

Q: API: value(readout=TGI, system=MOLT-4 leukemia) for record `COc1nc(C(=O)O)c(Cl)c(OC)c1Cl`
Ans: > 100 µM

Q: API: value(readout=TGI, system=MOLT-4 leukemia) for record COC(O)C(=O)c1c2c(cc3c1CCC3)CCCC2 (stereo unspecified)
Ans: 14.2 µM

Q: API: value(readout=TGI, system=MOLT-4 leukemia) for record `Clc1ccc(Cl)c(N=Nc2cc3c4c(c2)CCCN4CCC3)c1`
Ans: > 10 µM

Q: API: value(readout=TGI, system=MOLT-4 leukemia) for record `CCOC(=O)c1c(O)cc(=O)[nH]c1N1CCOCC1`
Ans: > 100 µM

Q: API: value(readout=TGI, system=MOLT-4 leukemia) for record `COC(=O)CCCc1ccc2c(c1)CC1(Cc3ccccc3C1)C2`
Ans: 15.5 µM

Q: API: value(readout=TGI, system=MOLT-4 leukemia) for record `Cc1ccc2nc3ccccc3c(NCc3ccccc3)c2c1`
Ans: 8.73 µM

Q: API: value(readout=TGI, system=MOLT-4 leukemia) for record `Cn1ncc(NCCn2cnc3c2c(=O)n(C)c(=O)n3C)c(Cl)c1=O`
Ans: > 100 µM

Q: API: value(readout=TGI, system=MOLT-4 leukemia) for record `O=C(Nc1ccc(-n2ccc3c(NC(=O)c4ccccc4)nccc32)cc1)c1cccc(C(F)(F)F)c1`
Ans: > 25.9 µM

Q: API: value(readout=TGI, system=MOLT-4 leukemia) for record C=C1C[C@H](O)[C@H]2C(C[Se]c3ccccc3)C(=O)O[C@@H]2[C@H]2[C@H](C)C(O)C[C@@H]12 (stereo partly specified)
Ans: > 100 µM

Q: API: value(readout=TGI, system=MOLT-4 leukemia) for record `O=C1C=CC2(C=C1)CCC(=O)O2`
Ans: > 100 µM

Q: API: value(readout=TGI, system=MOLT-4 leukemia) for record `CCCOc1cc2c(cc1O)CC[C@@H]1[C@@H]2CC[C@]2(C)[C@@H](O)CC[C@@H]12`
Ans: 14.2 µM

Q: API: value(readout=TGI, system=MOLT-4 leukemia) for record COc1ccc2c(c1)CC[C@@H]1C2CC[C@]2(C)C(=O)N(CCN3CCCC3)C(=O)CC12 (stereo partly specified)
Ans: 57.7 µM

Q: API: value(readout=TGI, system=MOLT-4 leukemia) for record Clc1ccc(C2c3ccccc3-c3nc4ccccc4n32)cc1 (stereo unspecified)
Ans: > 51.7 µM

Q: API: value(readout=TGI, system=MOLT-4 leukemia) for record `CO[C@@H]1[C@H](O)CC[C@]2(CO2)[C@H]1[C@@]1(C)O[C@@H]1CC=C(C)C`
Ans: > 200 µM

Q: API: value(readout=TGI, system=MOLT-4 leukemia) for record `O=C(/C=C/c1ccc2c(c1)OCO2)NCc1ccco1`
Ans: > 100 µM

Q: API: value(readout=TGI, system=MOLT-4 leukemia) for record `Cc1ccc(S(=O)(=O)N2CCCN(S(=O)(=O)c3ccc(C)cc3)CC2)cc1`
Ans: > 100 µM

Q: API: value(readout=TGI, system=MOLT-4 leukemia) for record CCOC(=O)C1(C(C)=O)OC(=O)c2cnccc21 (stereo unspecified)
Ans: > 100 µM

Q: API: value(readout=TGI, system=MOLT-4 leukemia) for record COc1cc(C2c3cc4c(cc3[C@@H](NCCCN3CCCC3=O)C3COC(=O)[C@H]23)OCO4)cc(OC)c1O (stereo partly specified)
Ans: > 100 µM
